Target: EP300 (P300(1048-1664)) (Homo sapiens)
Construct: P300(1048-1664)
Sequence (Q09472 1048-1664): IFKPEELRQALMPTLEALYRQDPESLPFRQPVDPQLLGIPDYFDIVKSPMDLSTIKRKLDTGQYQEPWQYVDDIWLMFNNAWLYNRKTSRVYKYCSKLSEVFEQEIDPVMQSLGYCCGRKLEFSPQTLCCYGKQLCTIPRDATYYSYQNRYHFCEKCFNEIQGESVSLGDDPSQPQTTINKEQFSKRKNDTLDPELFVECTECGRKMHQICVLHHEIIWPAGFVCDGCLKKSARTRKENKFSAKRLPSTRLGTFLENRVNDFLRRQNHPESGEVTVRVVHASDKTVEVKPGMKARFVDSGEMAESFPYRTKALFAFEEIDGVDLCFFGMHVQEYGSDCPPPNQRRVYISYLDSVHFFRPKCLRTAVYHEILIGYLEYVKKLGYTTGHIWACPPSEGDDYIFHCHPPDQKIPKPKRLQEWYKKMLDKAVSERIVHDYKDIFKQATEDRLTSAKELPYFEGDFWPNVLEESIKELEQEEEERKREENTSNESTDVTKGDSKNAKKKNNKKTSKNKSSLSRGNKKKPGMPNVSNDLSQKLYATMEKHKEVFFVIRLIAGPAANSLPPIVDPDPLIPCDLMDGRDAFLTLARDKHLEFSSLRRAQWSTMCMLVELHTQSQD
Experiment: Biochemical assay for EP300, SAMDI
Details: EP300, SAMDI; read-out: EP300 Biochemistry IC50
Description: The following example describes materials and methods relating to a biochemical assay for EP300. IC50 values (micromolar (μM)) are summarized in Table 1, Table 2, and Table 3 under the column labeled: “EP300 Biochemistry IC50 (micromolar).”
Parameter: IC50. Scope: all listed entries.

{"columns": ["compound", "IC50"],
 "data": [
  ["CCn1ncc(CN(C)C(=O)c2nc(-c3cc(C)c4cn[nH]c4c3)nc3ccc(Cl)cc23)c1C", "130 nM"],
  ["CCn1ncc(CN(C)C(=O)c2nc(-c3cc4n[nH]cc4cc3Cl)nc3ccc(Cl)cc23)c1C", "5.3 nM"],
  ["CNCCNc1ccc(-c2cc(C(=O)N(C)Cc3cncn3C)c3cc(Cl)ccc3n2)nc1C", "8960 nM"],
  ["CCn1ncc(CN(C)C(=O)c2nc(-c3cc4c(NC(C)=O)n[nH]c4cc3C)nc3ccc(Cl)cc23)c1C", "114 nM"],
  ["CCn1ncc([C@@H](C)N(C)C(=O)c2cc(-c3ccc(NCCN(C)C)c(C)n3)nc3ccc(Cl)cc23)c1C", "20.9 nM"],
  ["CCn1ncc(CN(C)C(=O)c2nc(-c3cc(Cl)cc(OCCNC)c3)nc3ccc(Cl)cc23)c1C", "11 nM"],
  ["CCn1ncc(CN(C)C(=O)c2nc(-c3ccc4nc[nH]c4c3Cl)nc3ccc(COC)cc23)c1C", "1000 nM"],
  ["CCn1ncc(CN(C)C(=O)c2cc(-c3cc(C)c(OCCNC)cn3)nc3ccc(Cl)cc23)c1C", "1400 nM"],
  ["CCn1ncc(CN(C)C(=O)c2nc(-c3cc(C)c4c(=O)[nH][nH]c4c3)nc3ccc(Cl)cc23)c1C", "13.5 nM"],
  ["CCn1ncc(CN(C)C(=O)c2nc(-c3cc(Cl)cc(NCCNC)c3)nc3ccc(Cl)cc23)c1C [Compound 14]", "2.9 nM"],
  ["CCc1ncc(CN(C)C(=O)c2cc(-c3ccc(OCC(O)CNC)c(C)n3)nc3ccc(COC)cc23)n1C (centres unmarked)", "47.6 nM"],
  ["CNCCNc1ccc(-c2cc(C(=O)N(C)Cc3cnc(C(C)C)n3C)c3cc(Cl)ccc3n2)nc1C", "6 nM"],
  ["CCn1ncc(CN(C)C(=O)c2nc(-c3cc(Cl)cc(NCCNC)c3)nc3ccc(Cl)cc23)c1C [Compound 12]", "3.5 nM"],
  ["CCn1ncc(CN(C)C(=O)c2nc(-c3cc(C)cc(NCCN(C)C(=O)OC(C)(C)C)c3)nc3ccc(Cl)cc23)c1C", "2600 nM"],
  ["CCn1ncc(CN(C)C(=O)c2nc(-c3ccc(OCCN(C)S(C)(=O)=O)c(OC)c3)nc3ccc(Cl)cc23)c1C", "4300 nM"],
  ["CCn1ncc(CN(C)C(=O)c2cc(-c3cc(-c4ncc[nH]4)n(C)n3)nc3ccc(COC)cc23)c1C", "14.1 nM"],
  ["CCn1ncc(CN(C)C(=O)c2nc(-c3cc(C(=O)NCCCN4CCCC4)[nH]n3)nc3ccc(Cl)cc23)c1C", "54 nM"],
  ["CCn1ncc(CN(C)C(=O)c2cc(-c3cnn[nH]3)nc3ccc(Cl)cc23)c1C", "8000 nM"],
  ["CCn1ncc(CN(C)C(=O)c2nc(-c3ccc(OCCNC(C)=O)c(Cl)c3)nc3ccc(Cl)cc23)c1C", "180 nM"],
  ["CCn1ncc(CN(C)C(=O)c2cc(-c3ccc(NCCNC)c(C)n3)nc3ccc(C4CC4)cc23)c1C", "51.1 nM"],
  ["CCn1ncc(CN(C)C(=O)c2cc(-c3cn(CCNC)cn3)nc3ccc(Cl)cc23)c1C", "360 nM"],
  ["CNCCNc1ccc(-c2cc(C(=O)N(C)Cc3cn[nH]c3C)c3cc(Cl)ccc3n2)nc1C", "≥ 50000 nM"],
  ["CCc1ncc(CN(C)C(=O)c2nc(-c3cc(N)c4cn[nH]c4c3)nc3ccc(COC)cc23)n1C", "28.5 nM"],
  ["CCn1ncc(CN(C)C(=O)c2nc(-c3ccc(OCCCO)c(C)c3)nc3ccc(Cl)cc23)c1C", "780 nM"],
  ["CCn1ncc(CN(C)C(=O)c2nc(-c3cc(C(=O)NC4CCN(C)CC4)nn3C)nc3ccc(Cl)cc23)c1C", "20000 nM"],
  ["CCn1ncc(CN(C)C(=O)c2nc(-c3cc4c(N)n[nH]c4cc3C)nc3ccc(Br)cc23)c1C", "4.1 nM"],
  ["CCn1ncc(CN(C)C(=O)c2nc(-c3cc(Cl)c4c[nH]nc4c3)nc3ccc(COC)cc23)c1C", "14 nM"],
  ["CCn1ncc(CN(C)C(=O)c2cc(-c3ccc(NCCNC)nn3)nc3ccc(Cl)cc23)c1C", "2000 nM"],
  ["CCn1ncc(CN(C)C(=O)c2nc(-c3ccc(OCCCN(C)C(=O)OC(C)(C)C)c(C)c3Cl)nc3ccc(Cl)cc23)c1C", "68 nM"]
]}

###

Biological target: CREBBP (1084-1701) (Homo sapiens)
Construct: measured in the following biochemical assay using CREBBP (1084-1701); purchased
Sequence (Q92793 1084-1701): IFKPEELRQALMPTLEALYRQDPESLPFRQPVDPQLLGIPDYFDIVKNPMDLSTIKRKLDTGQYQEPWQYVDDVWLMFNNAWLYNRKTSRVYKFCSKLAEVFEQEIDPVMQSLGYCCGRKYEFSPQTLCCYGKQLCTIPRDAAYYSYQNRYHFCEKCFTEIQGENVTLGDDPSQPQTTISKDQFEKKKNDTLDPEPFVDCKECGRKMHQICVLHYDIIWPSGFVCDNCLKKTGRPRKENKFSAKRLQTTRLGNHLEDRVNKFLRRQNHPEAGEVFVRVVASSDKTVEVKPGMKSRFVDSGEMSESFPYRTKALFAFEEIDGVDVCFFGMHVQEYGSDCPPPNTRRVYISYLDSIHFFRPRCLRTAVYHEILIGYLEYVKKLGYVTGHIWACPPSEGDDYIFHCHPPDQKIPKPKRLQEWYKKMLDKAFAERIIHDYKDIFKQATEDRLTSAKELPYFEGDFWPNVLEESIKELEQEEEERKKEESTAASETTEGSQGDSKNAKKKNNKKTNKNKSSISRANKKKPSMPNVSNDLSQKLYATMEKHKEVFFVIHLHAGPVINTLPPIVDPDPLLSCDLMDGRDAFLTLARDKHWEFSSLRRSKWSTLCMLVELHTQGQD
Experiment: Biochemical assay for CREBBP (1084-1701), SAMDI
Conditions: SAMDI, read-out: CREBBP Biochemistry IC50
Classify on IC50 using c1 (below 0.03 µM), c2 (0.03 µM to below 2 µM), c3 (2 µM or more)

{"columns": ["molecule", "system_tested", "cat"],
 "data": [
  ["CCc1ccc2nc(-c3ccccc3Cl)nc(C(=O)N(C)Cc3cnn(CC)c3C)c2c1", "CREBBP (1084-1701) (Homo sapiens)", "c2"],
  ["CCc1nc(-c2cc(C(=O)N(C)Cc3cnc(CC)n3C)c3cc(COC)ccc3n2)ccc1NCCN(C)C", "CREBBP (1084-1701) (Homo sapiens)", "c2"],
  ["CCc1ncc(CN(C)C(=O)c2nc(-c3ccc(NCCN(C)C)nc3C)nc3ccc(Cl)cc23)n1C", "CREBBP (1084-1701) (Homo sapiens)", "c2"],
  ["CCc1ncc(CN(C)C(=O)c2nc(-c3cc(N)c4cn[nH]c4c3)nc3ccc(COC)cc23)n1C", "CREBBP (1084-1701) (Homo sapiens)", "c1"],
  ["CCn1ncc(CN(C)C(=O)c2nc(-c3cc(C)c(OCCCNC)c(NC)c3)nc3ccc(Cl)cc23)c1C", "CREBBP (1084-1701) (Homo sapiens)", "c3"],
  ["CCn1ncc(CN(C)C(=O)c2cc(-c3ccc(NC4CN(CC#N)C4)c(C)n3)nc3ccc(Cl)cc23)c1C", "CREBBP (1084-1701) (Homo sapiens)", "c2"],
  ["CCn1ncc(CN(C)C(=O)c2cc(-c3ccc(NCC(=O)NC)c(C)n3)nc3ccc(Cl)cc23)c1C", "CREBBP (1084-1701) (Homo sapiens)", "c2"],
  ["CCn1ncc(CN(C)C(=O)c2cc(-c3ccc(NCCNC)c(OC)c3)nc3ccc(Cl)cc23)c1C", "CREBBP (1084-1701) (Homo sapiens)", "c2"],
  ["CCn1ncc(CN(C)C(=O)c2cc(-c3cc(-c4ncc[nH]4)n(C)n3)nc3ccc(COC)cc23)c1C", "CREBBP (1084-1701) (Homo sapiens)", "c2"],
  ["CCn1ncc(CN(C)C(=O)c2nc(-c3ccc(OC)cc3)nc3ccc(Cl)cc23)c1C", "CREBBP (1084-1701) (Homo sapiens)", "c3"],
  ["CCc1cc(CN(C)C(=O)c2cc(-c3ccc(NCCN(C)C)c(C)n3)nc3ccc(Cl)cc23)on1", "CREBBP (1084-1701) (Homo sapiens)", "c2"],
  ["CCn1ncc(CN(C)C(=O)c2cc(-c3cc4[nH]cnc4c(C)n3)nc3ccc(COC)cc23)c1C", "CREBBP (1084-1701) (Homo sapiens)", "c2"],
  ["CCn1ncc(CN(C)C(=O)c2nc(-c3ccc(C)cc3)nc3ccc(Cl)cc23)c1C", "CREBBP (1084-1701) (Homo sapiens)", "c3"],
  ["CCn1ncc(CN(C)C(=O)c2cc(-c3ccccc3Cl)nc3cc(F)ccc23)c1C", "CREBBP (1084-1701) (Homo sapiens)", "c3"],
  ["CCc1ncc(CN(C)C(=O)c2cc(-c3ccc(NC4CN(C)C4)c(C)n3)nc3ccc(Cl)cc23)n1C", "CREBBP (1084-1701) (Homo sapiens)", "c1"],
  ["CCc1noc(CN(C)C(=O)c2nc(-c3ccccc3Cl)nc3ccc(Cl)cc23)c1C", "CREBBP (1084-1701) (Homo sapiens)", "c2"],
  ["CCn1ncc(CN(C)C(=O)c2nc(-c3cc(C(=O)NCCN4CCCC4)on3)nc3ccc(Cl)cc23)c1C", "CREBBP (1084-1701) (Homo sapiens)", "c3"],
  ["CCn1ncc(CN(C)C(=O)c2cc(-c3cccc(Cl)c3)nc3ccc(N(C)C)cc23)c1C", "CREBBP (1084-1701) (Homo sapiens)", "c3"],
  ["CCn1ncc(CN(C)C(=O)c2nc(-c3cn(CCNC)nc3C)nc3ccc(Cl)cc23)c1C", "CREBBP (1084-1701) (Homo sapiens)", "c3"],
  ["CCn1ncc(CN(C)C(=O)c2nc(-c3cc(NC(=O)CNC)cc(OC)c3)nc3ccc(Cl)cc23)c1C", "CREBBP (1084-1701) (Homo sapiens)", "c2"],
  ["CCn1ncc(CN(C)C(=O)c2cc(-c3cccc(C)c3)nc3ccccc23)c1C", "CREBBP (1084-1701) (Homo sapiens)", "c3"],
  ["CCn1ncc(CN(C)C(=O)c2cc(-c3ccc(NCCNC)c(C)n3)nc3ccc(Cl)cc23)c1C [Compound 388]", "CREBBP (1084-1701) (Homo sapiens)", "c2"],
  ["CCn1ncc(CN(C)C(=O)c2nc(-c3cnn(CCNC)c3)nc3ccc(Cl)cc23)c1C", "CREBBP (1084-1701) (Homo sapiens)", "c3"],
  ["CCn1ncc(CN(C)C(=O)c2nc(-c3cc(C)nc(N[C@@H]4CCNC4)c3)nc3ccc(Cl)cc23)c1C", "CREBBP (1084-1701) (Homo sapiens)", "c1"],
  ["CCn1ncc(CN(C)C(=O)c2cc(-c3ccccc3C#N)nc3ccc(Cl)cc23)c1C", "CREBBP (1084-1701) (Homo sapiens)", "c2"],
  ["CCn1ncc(CN(C)C(=O)c2nc(-c3cc(C)nc(NCCN(C)C)c3)nc3ccc(Cl)cc23)c1C [Compound 469]", "CREBBP (1084-1701) (Homo sapiens)", "c1"],
  ["CCn1ncc(CN(C)C(=O)c2cc(-c3ccc(NC4CN(C)C4)c(C)n3)nc3ccc(Cl)cc23)c1C", "CREBBP (1084-1701) (Homo sapiens)", "c1"],
  ["CCn1ncc(CN(C)C(=O)c2cc(-c3cnc[nH]3)nc3ccc(Cl)cc23)c1C", "CREBBP (1084-1701) (Homo sapiens)", "c2"],
  ["CCn1ncc(CN(C)C(=O)c2nc(-c3cc4c(N)n[nH]c4cc3C)nc3ccc(Cl)cc23)c1C", "CREBBP (1084-1701) (Homo sapiens)", "c1"],
  ["CCc1noc(CN(C)C(=O)c2cc(-c3ccc(NCCNC)c(C)n3)nc3ccc(Cl)cc23)c1C", "CREBBP (1084-1701) (Homo sapiens)", "c2"]
]}
